# Test: Solubility in ethanol at 25 deg. C.
# Type: physicochemical
# Measurement setup: ethanol, organic solvent or mixture, average of triplicate
Parameter: solubility (µg/mL)
Answers are plain numbers, in µg/mL.

Look up and report measured solubility for this entry: N[C@@H](Cc1ccccc1)C(=O)O [Phenylalanine (Phe), Phenylalanine, reference compound]
234

----------
# Test: Permeation rate through polyurethane
# Type: physicochemical
# From the text: In the examples, the solubilities of free zwitterion and enhanced solubilities of various salts thereof are reported in various degrees in the following solvents: water, ethanol, octanol, chloroform and human stratum corneum. Permeation rates are also shown for these zwitterionic compounds and enhanced fluxes of the salts thereof through materials including polyurethane. […] Average of values measured in triplicate.
Structures can show the parent of a compound that is named as a salt.
Doc: threshold 100 (exclusive). Items with R.E. (relative enhancement) of permeation rate through polyurethane beneath it return criterion met; others return criterion not met.

compound="NCCCC[C@H](N[C@H]1CCc2ccccc2N(CC(=O)O)C1=O)C(=O)O [CGS 16617. dihydrobromide]" classification="criterion not met"
compound="O=C(O)CN1C(=O)[C@@H](N[C@@H](CCc2ccccc2)C(=O)O)CCc2ccccc21 [CGS 14831. dilithium salt]" classification="criterion not met"
compound="O=C(O)CN1C(=O)[C@@H](N[C@@H](CCc2ccccc2)C(=O)O)CCc2ccccc21 [Benazeprilat (CGS14831), Benazeprilat, reference compound]" classification="criterion met"
compound="O=C(O)CN1C(=O)[C@@H](N[C@@H](CCc2ccccc2)C(=O)O)CCc2ccccc21 [CGS 14831. dipotassium salt]" classification="criterion not met"
compound="NCCCC[C@H](N[C@H]1CCc2ccccc2N(CC(=O)O)C1=O)C(=O)O [CGS 16617, reference compound]" classification="criterion met"
compound="NCCCC[C@H](N[C@H]1CCc2ccccc2N(CC(=O)O)C1=O)C(=O)O [CGS 16617. dihydrochloride]" classification="criterion met"

Turning to the following compound.
Field: below-cutoff. Rule: recorded R.E. (relative enhancement) of permeation rate through polyurethane strictly less than 100. Subject: NCCCC[C@H](N[C@H]1CCc2ccccc2N(CC(=O)O)C1=O)C(=O)O [CGS 16617. monomaleate]
criterion met

----------
# Test: Solubility in ethanol at 25 deg. C.
# Assay type: physicochemical
# Measurement setup: average of triplicate
Where a name gives a salt, the structure may show the parent alone.
Exercise: for every item that follows, state its recorded Solubility in ethanol.
Note: a bare number is incomplete; add the unit.

Here are 5 compounds together with their reported answers.
compound="NCCCC[C@H](N[C@H]1CCc2ccccc2N(CC(=O)O)C1=O)C(=O)O [CGS 16617. dihydrochloride]" result="1.89075 mg/mL"
compound="NCC(CC(=O)O)c1ccc(Cl)cc1 (centres unmarked) [Bac. hydrobromide]" result="129.5697 mg/mL"
compound="NCC(CC(=O)O)c1ccc(Cl)cc1 (centres unmarked) [Bac. propane sulfonate]" result="107.317 mg/mL"
compound="NCC(CC(=O)O)c1ccc(Cl)cc1 (centres unmarked) [Bac. methane sulfonate, baclofen methane sulfonate]" result="170.84 mg/mL"
compound="O=C(O)CN1C(=O)[C@@H](N[C@@H](CCc2ccccc2)C(=O)O)CCc2ccccc21 [Benazeprilat (CGS14831), Benazeprilat, reference compound]" result="0.12089 mg/mL"

For every item below, please supply its Solubility in ethanol.
1. NCC(CC(=O)O)c1ccc(Cl)cc1 (centres unmarked) [Bac. ethane sulfonate]
2. NCC(CC(=O)O)c1ccc(Cl)cc1 (centres unmarked) [Bac. pentane sulfonate]
3. NCC(CC(=O)O)c1ccc(Cl)cc1 (centres unmarked) [Bac. hydrochloride]

1: 237.181 mg/mL; 2: 61.6503 mg/mL; 3: 37.4989 mg/mL
